Test system: Saccharomyces cerevisiae
Test: protein stability index of tFT-peptide fusion (C-terminal peptide) (PSI (0-1 scale)); higher = more stable (slower turnover)
Settings: genetic background: wild type; temperature: 30 C
Let's look at some sequences and their measured protein stability index.
Output spec: single numeric token, no unit.

| Sequence content | Reported |
| --- | --- |
| IEGKDSQEREGR | 0.706 |
| WVGFRTFGVWGV | 0.707 |
| LCANDRGVAALA | 0.683 |
| RREVKKNGNKRN | 0.713 |
| QQRKGTKDNGRE | 0.707 |
| PAPANRPTPRPV | 0.7 |
| GGPPTQAKPSPR | 0.647 |
| PPSQRPPPPPPL | 0.704 |
| VYDVSVGVAVVG | 0.457 |
| EIRPRPYLCERF | 0.725 |

Request: Find the measured protein stability index: item `LRYENSQRKELR` , target or system Saccharomyces cerevisiae.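 Further: PSI is a weighted mean of sequencing reads over stability bins, variants kept only with over 10 reads, mCherry proximal and sfGFP distal, peptide attached via GGGS linker.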
Result: 0.653
